assay: Toxicity liver stage against HepG2, at 10uM; format: cell-based; parameters: test concentration 10 uM, cell line HepG2-A16-CD81EGFP; conditions: human, HepG2-A16-CD81EGFP cells; read-out: INHIBITION
cytotoxicity at 10 µM for assorted compounds
Write the answer as a number in %, unit excluded.

Known results for compounds:
compound="Cc1ccc(C(=O)NCC(C)Cn2cccn2)c(=O)[nH]1 (stereo not given)" unit_symbol=% quantitative_readout=3.14
compound=COCC(=O)N1C[C@@H](O)[C@H](N2CCN(c3ccccc3)CC2)C1 unit_symbol=% quantitative_readout=2.7
compound="CC(=O)N1CCc2c(nc(N(C)C)nc2NCCC2CCCCO2)C1 (stereo not given)" unit_symbol=% quantitative_readout=5.22
compound="CNc1cccc(C2CN(C(=O)CNS(C)(=O)=O)CCO2)n1 (stereo not given)" unit_symbol=% quantitative_readout=-2.24
compound="Cc1nn(C)c(Cl)c1C1CCCN1C(=O)c1csnn1 (stereo not given)" unit_symbol=% quantitative_readout=-0.121

Return reported cytotoxicity at 10 µM; argument: CCc1cnc(N2CC3(CCN(Cc4ccsc4)C3)C2)nc1
2.98

Please give the measured cytotoxicity at 10 µM for this compound: O=C(NCCn1cccc1)C(c1ccccc1)N1CCCC1 (stereo not given)
-0.288

I would be grateful if you could share the reported cytotoxicity at 10 µM for Cn1cc(CCNC(=O)NC2CCS(=O)(=O)C2)cn1 (stereo not given) .
-12.9

// cytotoxicity at 10 µM lookup, key: CCN(CC)S(=O)(=O)NCC(O)c1c(Cl)cccc1Cl (stereo not given)
8.66

Please look up its cytotoxicity at 10 µM: CN(C)c1ncccc1CNC(=O)N1CCCC1c1ccsc1 (stereo not given)
-6.33

Endpoint output: cytotoxicity at 10 µM of Cc1c(Cl)cccc1S(=O)(=O)N1C[C@H]2CC[C@@H](C1)N(C)C2=O . Value?
3.42

State the recorded cytotoxicity at 10 µM for this entry: O=C(c1cc(C2CCCN(Cc3ccccn3)C2)no1)N1CCCC1 (stereo not given)
-18.9

Dear colleague, I am looking for the recorded cytotoxicity at 10 µM of the following compound: CC(C)(C)c1nnc(CN2CCN(C(=O)N3CCCCC3)CC2)o1
2.44

If you can, please state the reported cytotoxicity at 10 µM value of O=C(Nc1cc(CSCCO)ccn1)c1ccc(Cl)o1 .
-7.76

Reported cytotoxicity at 10 µM for CC(=O)N1CCC2(CCCN(C(=O)c3ccccc3)C2)C1 (stereo not given) : what is it?
9.52

For the compound CC(C)(C)c1n[nH]c(C2CN(C(=O)c3cnc[nH]3)CCO2)n1 (stereo not given) , what cytotoxicity at 10 µM is on record?
0.152

Entry under review: COc1cccc(N2CCC(N3C[C@@H](NC(C)=O)[C@H](C(C)C)C3)CC2)c1 . Reported cytotoxicity at 10 µM?
-9.98

// query cytotoxicity at 10 µM value for entry CS(=O)(=O)N1C[C@@H]2CC[C@H]1CN(Cc1ccncc1)C2
-2.34

Param item = Clc1ccc(NCc2nnc(C3CC3)o2)cc1Cl ; retrieve measured cytotoxicity at 10 µM.
-12.4

Quick check: cytotoxicity at 10 µM of Cn1ccnc1CNC(=O)N1CCCC(Cc2nccn2C)C1 (stereo not given) ?
2.63

Can you share its cytotoxicity at 10 µM? I mean this compound: O=C(N1CCOCC1)N1CCc2ncnc(NC3CC3)c2CC1
-20.9

Value lookup for cytotoxicity at 10 µM; key = O=C(NCCNc1ncccn1)C1CC(=O)N(Cc2ccccn2)C1 (stereo not given)
-10.4

I have this compound here, Cc1cnc(CN2CCCC(c3cc(C)[nH]n3)C2)cn1 (stereo not given) , and I need its recorded cytotoxicity at 10 µM.
0.802

Find the recorded cytotoxicity at 10 µM belonging to Cc1nc(C)c(CCNc2ccc(S(N)(=O)=O)cc2C#N)s1 and report it.
-62.2

Fill in the blank: the reported cytotoxicity at 10 µM of COc1ccc(S(=O)(=O)NCCC(O)c2ccccc2)c(C)c1 (stereo not given) is ____.
0.174
